SUBJECT_OF_TEST: Amyloid-beta precursor protein (Homo sapiens, UniProt P05067)
Sequence (P05067 whole entry): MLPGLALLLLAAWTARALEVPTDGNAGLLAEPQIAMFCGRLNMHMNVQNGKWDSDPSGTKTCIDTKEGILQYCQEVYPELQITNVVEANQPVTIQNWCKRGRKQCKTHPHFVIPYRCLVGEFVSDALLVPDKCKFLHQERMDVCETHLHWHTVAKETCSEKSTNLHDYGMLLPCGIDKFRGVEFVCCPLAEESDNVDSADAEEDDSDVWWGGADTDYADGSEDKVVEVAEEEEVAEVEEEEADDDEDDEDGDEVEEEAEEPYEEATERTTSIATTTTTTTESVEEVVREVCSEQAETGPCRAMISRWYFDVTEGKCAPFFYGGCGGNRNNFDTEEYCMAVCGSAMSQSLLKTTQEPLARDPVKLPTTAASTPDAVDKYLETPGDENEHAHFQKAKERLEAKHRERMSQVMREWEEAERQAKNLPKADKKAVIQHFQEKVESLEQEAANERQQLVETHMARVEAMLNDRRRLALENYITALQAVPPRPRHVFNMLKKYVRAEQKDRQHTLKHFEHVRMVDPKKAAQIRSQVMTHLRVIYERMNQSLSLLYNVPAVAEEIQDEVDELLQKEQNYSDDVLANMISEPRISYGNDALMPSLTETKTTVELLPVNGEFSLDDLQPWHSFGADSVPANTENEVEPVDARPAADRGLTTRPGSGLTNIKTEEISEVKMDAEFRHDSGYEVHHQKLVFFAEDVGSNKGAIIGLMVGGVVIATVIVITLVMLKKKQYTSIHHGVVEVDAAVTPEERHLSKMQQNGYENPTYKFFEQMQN
TEST_METHOD_NOTES: Inhibition of amyloid beta 42 transfected in human H4 cells incubated for 20 to 24 hrs by LPECL assay
QUANTITY_MEASURED: IC50

>>> observed("COc1cc(/C=C/c2cc(/C=C/c3ccc(O)c(OC)c3)[nH]n2)ccc1O [CURCUMIN PYRAZOLE]")
"476 nM"
>>> observed("COc1cc(/C=C/c2cc(/C=C/c3ccc(O)c(OC)c3)n(-c3ccc(C(C)C)cc3)n2)ccc1O")
"> 1000 nM"
>>> observed("COc1cc(/C=C/c2cc(/C=C/c3ccc(OCC(=O)O)c(OC)c3)on2)ccc1OCC(=O)O")
"> 1000 nM"

---

SUBJECT_OF_TEST: Microtubule-associated protein tau (Homo sapiens, UniProt P10636)
Sequence (P10636 whole entry): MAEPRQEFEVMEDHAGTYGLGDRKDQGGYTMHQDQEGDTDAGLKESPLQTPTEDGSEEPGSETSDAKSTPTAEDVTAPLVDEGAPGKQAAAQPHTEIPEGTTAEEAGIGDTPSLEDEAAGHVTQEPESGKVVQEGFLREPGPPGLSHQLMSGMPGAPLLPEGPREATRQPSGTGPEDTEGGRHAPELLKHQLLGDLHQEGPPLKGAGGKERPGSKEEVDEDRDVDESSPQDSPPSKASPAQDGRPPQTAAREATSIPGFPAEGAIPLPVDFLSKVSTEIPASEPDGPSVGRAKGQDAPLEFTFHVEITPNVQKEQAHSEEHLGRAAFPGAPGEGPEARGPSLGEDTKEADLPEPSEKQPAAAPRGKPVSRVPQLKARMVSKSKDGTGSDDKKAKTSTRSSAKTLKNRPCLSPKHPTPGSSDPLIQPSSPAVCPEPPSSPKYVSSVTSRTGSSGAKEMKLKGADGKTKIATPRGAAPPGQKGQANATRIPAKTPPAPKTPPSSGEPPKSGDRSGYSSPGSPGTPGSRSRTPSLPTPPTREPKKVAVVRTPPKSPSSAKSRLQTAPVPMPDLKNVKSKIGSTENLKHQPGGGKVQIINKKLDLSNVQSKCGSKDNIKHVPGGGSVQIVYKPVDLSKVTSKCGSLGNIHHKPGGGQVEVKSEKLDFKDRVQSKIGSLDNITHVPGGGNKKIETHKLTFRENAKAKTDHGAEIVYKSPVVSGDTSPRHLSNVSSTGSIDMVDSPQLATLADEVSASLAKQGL
TEST_METHOD_NOTES: Inhibition of tau (unknown origin) transfected in human H4 cells incubated for 20 to 24 hrs by LPECL assay
Quick reference for IC50 among some compounds
QUANTITY_MEASURED: IC50 (µM)

>>> observed("COc1cc(/C=C/c2cc(/C=C/c3ccc(O)c(OC)c3)n(-c3ccc([N+](=O)[O-])cc3)n2)ccc1O")
1.2
>>> observed("COc1cc(/C=C/c2cc(/C=C/c3ccc(O)c(OC)c3)n(-c3ccc(Cl)nn3)n2)ccc1O")
54
>>> observed("COc1cc(/C=C/c2cc(/C=C/c3ccc(O)c(OC)c3)n(-c3ccccc3)n2)ccc1O")
103

---

SUBJECT_OF_TEST: Microtubule-associated protein tau (Homo sapiens)
TEST_METHOD_NOTES: Inhibition of tau (unknown origin) transfected in human H4 cells incubated for 20 to 24 hrs by LPECL assay
QUANTITY_MEASURED: IC50

>>> observed("COc1cc(/C=C/c2cc(/C=C/c3ccc(O)c(OC)c3)on2)ccc1O")
"> 200 µM"
>>> observed("COc1cc(/C=C/c2cc(/C=C/c3ccc(OCC(=O)O)c(OC)c3)on2)ccc1OCC(=O)O")
"> 200 µM"
>>> observed("COc1cc(/C=C/c2cc(/C=C/c3ccc(OCC(=O)OC(C)(C)C)c(OC)c3)on2)ccc1OCC(=O)OC(C)(C)C")
"> 200 µM"
